- TESTED ON: recombinant human cannabinoid CB1 receptor (Homo sapiens, UniProt P21554)
- Construct: purchased Receptor Biology RB-HCB1
- Sequence (P21554 whole entry): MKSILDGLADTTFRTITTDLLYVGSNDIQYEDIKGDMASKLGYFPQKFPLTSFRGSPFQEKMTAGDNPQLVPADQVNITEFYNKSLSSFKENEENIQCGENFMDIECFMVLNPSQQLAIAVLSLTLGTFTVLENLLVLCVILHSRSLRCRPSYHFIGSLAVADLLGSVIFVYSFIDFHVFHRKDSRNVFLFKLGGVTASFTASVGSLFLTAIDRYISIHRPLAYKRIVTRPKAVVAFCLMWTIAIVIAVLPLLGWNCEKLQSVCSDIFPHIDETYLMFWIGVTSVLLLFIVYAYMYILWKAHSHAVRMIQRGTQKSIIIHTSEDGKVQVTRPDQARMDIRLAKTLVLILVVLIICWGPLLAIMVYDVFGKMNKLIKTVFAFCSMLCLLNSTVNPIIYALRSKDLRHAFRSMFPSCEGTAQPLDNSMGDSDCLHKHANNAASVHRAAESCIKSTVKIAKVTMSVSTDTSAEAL
- MEASUREMENT DESCRIPTION: [3H] CP-55,940 competition binding to recombinant cannabinoid receptor membranes (CB1), reported as the CB1/CB2 selection ratio
- EXPERIMENTAL CONDITIONS: Ki CB1 / Ki CB2, same binding assay
Reported values of selection ratio of the Ki value of the CB1 receptor to that of the CB2 receptor for individual entries

Solved cases (2 shown):
{"COMPOUND": "CC(C)n1c(S(=O)(=O)N2CC3C(CNC(=O)OC(C)(C)C)C3C2)c(S(=O)(=O)c2ccccc2F)c2ccccc21 (stereo not shown) [compound 62]", "RESULT": "~1.9"}
{"COMPOUND": "O=S(=O)(c1cc2ccccc2n1S(=O)(=O)c1ccccn1)N1CCC2(CC1)CC2NS(=O)(=O)C(F)(F)F (stereo not shown) [compound 41]", "RESULT": "~3500"}

Request: I am curious: what selection ratio of the Ki value of the CB1 receptor to that of the CB2 receptor value has been reported for O=S(=O)(c1ccccn1)c1cc(Cl)ccc1S(=O)(=O)N1CC2C(CNS(=O)(=O)C(F)(F)F)C2C1 (stereo not shown) [compound 6] ?
Response: ~6300

Request: // query: O=S(=O)(c1ccccn1)c1cc(C(F)(F)F)ccc1S(=O)(=O)N1CCC2(CC1)CC2NS(=O)(=O)C(F)(F)F (stereo not shown) [compound 31]
Response: ~71

Request: // query: CS(=O)(=O)NCC1C2CN(S(=O)(=O)c3ccc(Cl)cc3S(=O)(=O)c3ccccc3F)CC12 (stereo not shown) [compound 9]
Response: ~2700

###

- TESTED ON: recombinant human cannabinoid CB2 receptor (Homo sapiens, UniProt P34972)
- Construct: purchased Receptor Biology RB-HCB2
- Sequence (P34972 whole entry): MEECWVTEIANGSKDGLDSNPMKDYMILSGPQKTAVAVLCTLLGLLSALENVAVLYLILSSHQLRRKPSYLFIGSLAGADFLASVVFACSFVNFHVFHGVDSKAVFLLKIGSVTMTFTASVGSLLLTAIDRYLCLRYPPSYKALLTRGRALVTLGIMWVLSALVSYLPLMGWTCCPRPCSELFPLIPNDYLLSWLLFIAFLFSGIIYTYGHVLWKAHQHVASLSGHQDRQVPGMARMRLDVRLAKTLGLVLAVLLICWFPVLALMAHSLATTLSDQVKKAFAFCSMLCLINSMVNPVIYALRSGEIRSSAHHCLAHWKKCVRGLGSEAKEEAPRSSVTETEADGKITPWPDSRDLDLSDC
- MEASUREMENT DESCRIPTION: [3H] CP-55,940 competition binding to recombinant cannabinoid receptor membranes (CB2)
- EXPERIMENTAL CONDITIONS: 0.48 nM [3H] CP-55,940, 15 μg membrane protein, 2 hours at room temperature; read-out: Ki values (CB2 receptor)
Reported values of Ki for individual entries
# number only, unit nM dropped from output

{"COMPOUND": "CS(=O)(=O)NC1CC12CCN(S(=O)(=O)c1cc3ccccc3n1S(=O)(=O)c1ccccc1F)CC2 (racemic)", "Ki [nM]": 0.24}
{"COMPOUND": "CS(=O)(=O)NCC1C2CN(S(=O)(=O)c3ccc(Cl)cc3S(=O)(=O)c3ccccc3F)CC12 (stereo not shown)", "Ki [nM]": 0.65}
{"COMPOUND": "O=S(=O)(c1cc2ccccc2n1S(=O)(=O)c1ccccc1F)N1CCC2(CC1)C[C@@H]2NS(=O)(=O)C(F)(F)F", "Ki [nM]": 1}

Kindly consider the entry below.
Request: I am curious: what Ki value has been reported for O=S(=O)(c1cc2cccnc2n1S(=O)(=O)c1ccccc1F)N1CC2C(CNS(=O)(=O)C(F)(F)F)C2C1 (stereo not shown) ?
Response: 3.3

###

- TESTED ON: recombinant human cannabinoid CB2 receptor (Homo sapiens)
- Construct: purchased Receptor Biology RB-HCB2
- MEASUREMENT DESCRIPTION: [3H] CP-55,940 competition binding to recombinant cannabinoid receptor membranes (CB2)
Please use satisfied for Ki under 30 nM and not satisfied for everything else, ties included.

{"COMPOUND": "Cn1c(S(=O)(=O)N2CCC3(CC2)CC3NS(=O)(=O)C(F)(F)F)c(S(=O)(=O)c2ccccc2F)c2ccccc21 (stereo not drawn) [compound 61]", "TESTED ON": "recombinant human cannabinoid CB2 receptor (Homo sapiens)", "ASSIGNED LABEL": "satisfied"}
{"COMPOUND": "CS(=O)(=O)NCC1CC2CCC(C1)N2S(=O)(=O)c1cc2ccccc2n1S(=O)(=O)c1ccccc1F (stereo not drawn) [compound 47]", "TESTED ON": "recombinant human cannabinoid CB2 receptor (Homo sapiens)", "ASSIGNED LABEL": "satisfied"}
{"COMPOUND": "O=S(=O)(c1ccccn1)c1cc(C(F)(F)F)ccc1S(=O)(=O)N1CCC2(CC1)CC2NS(=O)(=O)C(F)(F)F (stereo not drawn) [compound 31]", "TESTED ON": "recombinant human cannabinoid CB2 receptor (Homo sapiens)", "ASSIGNED LABEL": "satisfied"}

Request: Item CCC1(CNCC(F)(F)F)CC2CCC(C1)N2S(=O)(=O)c1ccc(Cl)cc1S(=O)(=O)c1ccccn1 (stereo not drawn) [compound 58] : Ki beneath 30 nM, strictly?
Response: not satisfied

Request: // query: CC(C)n1c(S(=O)(=O)N2CC3C(CNC(=O)OC(C)(C)C)C3C2)c(S(=O)(=O)c2ccccc2F)c2ccccc21 (stereo not drawn) [compound 62]
Response: satisfied

Request: // query: CCC1(CNS(=O)(=O)C(F)(F)F)CC2CCC(C1)N2S(=O)(=O)c1ccc(Cl)cc1S(=O)(=O)c1ccccn1 (stereo not drawn) [compound 59]
Response: satisfied
